The measured values listed here are drawn from PubChem BioAssay (NCI).

Tested on: PC-3 prostate
Test: NCI tumour cell line growth inhibition, 48 h; in the data active means GI50 below about 0.43 µM; inactive means the rest
Labels: t (active), f (inactive)

[[record]]
compound = "O=C1Nc2c(C(F)(F)F)cccc2[C@@]1(c1ccc(O)cc1)c1ccc(OC(F)(F)F)cc1"
answer_label = "t"

[[record]]
compound = "O=C(CN(/C=C/C(=O)C(F)(F)F)c1ccc(Cl)cc1)c1ccccc1"
answer_label = "f"

[[record]]
compound = "CC1COc2c(N3CCN(C)CC3)c(F)cc3c(=O)c(C(=O)O)cn1c23 (stereo not given)"
answer_label = "f"

[[record]]
compound = "Nc1nc2c(s1)CCc1c-2c(Br)n(Cc2ccccc2)c1Br"
answer_label = "f"

[[record]]
compound = "COc1cc(-c2nc3ccccc3s2)ccc1NC(=O)COc1ccc(Cl)cc1"
answer_label = "f"


---

Entries annotated with measured TGI
System: HOP-92 NSCLC
Test: NCI tumour cell line growth inhibition, 48 h
Attribute Measured: TGI (µM)

[[record]]
smiles_code = "C=CCSC1=N/C(=C\\c2cccs2)C(=O)N1CC=C"
attribute_measured = "TGI"
relation = "="
observed_value = 57

[[record]]
smiles_code = "CCN(CC)c1ccc2cc(C(=O)Nc3ccccc3)c(=N)oc2c1"
attribute_measured = "TGI"
relation = ">"
observed_value = 100

[[record]]
smiles_code = "C=C(C)[C@H]1C=C[C@@H](OC(=O)c2cccnc2)[C@@]23CO[C@@](C)([C@H](OC(=O)c4cccnc4)[C@@]4(OC(C)=O)C[C@H](C)[C@H](OCCC)[C@@H]4[C@H]2OC(C)=O)[C@H]13"
attribute_measured = "TGI"
relation = ">"
observed_value = 15

[[record]]
smiles_code = "CCOC(=O)c1c(Cl)nc2ccccc2c1N=[N+]=[N-]"
attribute_measured = "TGI"
relation = "="
observed_value = 59.5


---

Here the recorded TGI is given for each entry.
Tested on: U251 CNS
Test: NCI tumour cell line growth inhibition, 48 h
Attribute Measured: TGI (µM)

[[record]]
compound = "CC(=O)Nc1ccc(-c2nc3ccccc3s2)cc1I"
relation = ">"
observed_value = 81.6

[[record]]
compound = "S=C1CC(c2ccccc2)Sc2ccccc2N1 (configuration not stated)"
relation = ">"
observed_value = 100

[[record]]
compound = "CCN1C(=O)C(C)S/C1=N\\NC(=O)CSc1nc2ccccc2c(=O)n1CC (configuration not stated)"
relation = ">"
observed_value = 100

[[record]]
compound = "COc1cc(OC)c(/C=C\\c2ccnc3ccccc23)c(OC)c1"
relation = "="
observed_value = 15.2

[[record]]
compound = "Cc1ccc(S(=O)(=O)N2CCSCCN(S(=O)(=O)c3ccc(C)cc3)CCN(S(=O)(=O)c3ccc(C)cc3)CC2)cc1"
relation = "="
observed_value = 90.1

[[record]]
compound = "COc1cc(OC)c2nc(C)c3c(c2c1)NCC3"
relation = "="
observed_value = 33.4

[[record]]
compound = "CC(C)(C)C(=O)OCOP(=O)(OCOC(=O)C(C)(C)C)C1CC(O)N(O)C1=O (configuration not stated)"
relation = "="
observed_value = 44.1

[[record]]
compound = "CCCCCCCCCCCCCC1=NCCN1CCO"
relation = "="
observed_value = 4.95

[[record]]
compound = "CCOC(=O)C(C)NC(=O)C(C)NC(=O)C(C)NC(=O)C(C)NC(=O)C(C)NC(=O)OCc1ccccc1 (configuration not stated)"
relation = ">"
observed_value = 100

[[record]]
compound = "O=C(O)C[C@H]1CCCCC12CCOC2=O (some centres not stated)"
relation = ">"
observed_value = 100

[[record]]
compound = "Nc1ccn(C2CCC(CO)O2)c(=S)n1 (configuration not stated)"
relation = ">"
observed_value = 100

[[record]]
compound = "Clc1ccc2c(c1)N(CCCN1CCCC1)c1ccccc1S2"
relation = "="
observed_value = 20.5

[[record]]
compound = "CCN1C(=O)N(CC)C2Nn3c(s/c(=C\\c4ccccc4Br)c3=O)=NC21 (configuration not stated)"
relation = "="
observed_value = 19.4

[[record]]
compound = "Clc1cc(Cl)cc(C2ON=C(c3ccccc3)N2C23CC4CC(CC(C4)C2)C3)c1 (configuration not stated)"
relation = ">"
observed_value = 10

[[record]]
compound = "CC(C)NC(=O)OCc1c(COC(=O)NC(C)C)c(-c2cc[n+](COC(=O)C(C)(C)C)cc2)n2c1CCC2"
relation = ">"
observed_value = 100

[[record]]
compound = "CC(C)=NNC=N/C(C#N)=C(\\N)C#N"
relation = ">"
observed_value = 100

[[record]]
compound = "CCCCC(Sc1cc(Cl)c(C)cc1S(=O)(=O)Nc1n[nH]c(N)n1)C(=O)OC (configuration not stated)"
relation = ">"
observed_value = 10

[[record]]
compound = "CN(C)CCNC(=O)C(C)(C)Oc1ccc(C(=O)c2ccc(Cl)cc2)cc1Cl"
relation = "="
observed_value = 20

[[record]]
compound = "c1ccc(CNCCCCNCCCNCc2ccccc2)cc1"
relation = "="
observed_value = 35.7

[[record]]
compound = "Oc1ccc(O)c(-c2cn3ccsc3n2)c1"
relation = "="
observed_value = 33.7

[[record]]
compound = "O=C1CCC2CC(C(=O)c3ccccc3)CCC2CN1 (configuration not stated) (tested in a mixture with another compound)"
relation = ">"
observed_value = 100

[[record]]
compound = "CN(C)CCN=C1Nc2ccccc2C(=S)N2CSCC12 (configuration not stated)"
relation = ">"
observed_value = 100


---

System: COLO 205 colon
Test: NCI tumour cell line growth inhibition, 48 h; in the data active = GI50 below about 0.43 µM; inactive = the rest
Outcomes: active, inactive

[[record]]
smiles_code = "Cc1ccccc1-n1ncc(C(=O)c2ccccc2)c1N"
answer_label = "inactive"

[[record]]
smiles_code = "COc1ccc2c(c1)[nH]c(=O)c1c3cc(OC)ccc3cn21"
answer_label = "active"

[[record]]
smiles_code = "COc1ccc2c(c1)[n+](=O)c(C(=O)c1ccco1)c(C(F)(F)F)n2[O-]"
answer_label = "inactive"

[[record]]
smiles_code = "O=C(CN(/C=C/C(=O)C(F)(F)F)c1ccc(Cl)cc1)c1ccccc1"
answer_label = "inactive"

[[record]]
smiles_code = "CC(=O)c1cc(C(=O)c2ccc3c(c2)Sc2ccccc2N3)c2c(C)cc(C)cn12"
answer_label = "active"

[[record]]
smiles_code = "COc1ccc(C(=O)c2cc(OC)c(OC)c(OC)c2)cc1/C=C/C(=O)c1ccc(OC)c(OC)c1"
answer_label = "inactive"

[[record]]
smiles_code = "CN(Cc1cc(Br)cc(Br)c1O)Cc1cc(Br)cc(Br)c1O"
answer_label = "inactive"

[[record]]
smiles_code = "O=C1c2ccccc2S(=O)(=O)N1CSC(=S)N1CCCCC1"
answer_label = "inactive"

[[record]]
smiles_code = "Oc1ccc(O)c(-c2cn3ccsc3n2)c1"
answer_label = "inactive"


---

Test system: SNB-19 CNS
Test: NCI tumour cell line growth inhibition, 48 h
Attribute Measured: TGI

[[record]]
molecule = "Cc1oc2c(Cl)cc(O)c(Cl)c2c2cccc1-2"
observed_value = "> 100 µM"

[[record]]
molecule = "Cn1cc(C2=C(c3cn(C)c4c([N+](=O)[O-])cccc34)C(=O)NC2=O)c2ccccc21"
observed_value = "> 25 µM"

[[record]]
molecule = "O=C1CCC2CC(C(=O)c3ccccc3)CCC2CN1 (stereo not given) (tested in a mixture with another compound)"
observed_value = "> 100 µM"

[[record]]
molecule = "CS(=O)(=O)Nc1ccc(-c2cc(-c3ccccc3)cc(C(N)=O)c2N)cc1"
observed_value = "> 25 µM"

[[record]]
molecule = "C=CCSC1=N/C(=C\\c2cccs2)C(=O)N1CC=C"
observed_value = "> 100 µM"


---

compounds and their reported TGI
System: SF-295 CNS
Test: NCI tumour cell line growth inhibition, 48 h
Attribute Measured: TGI

[[record]]
compound = "CNC(=O)SCC(N)C(=O)O (stereo not given)"
attribute_measured = "TGI"
observed_value = "> 100 µM"

[[record]]
compound = "CC(C)=NNC=N/C(C#N)=C(\\N)C#N"
attribute_measured = "TGI"
observed_value = "> 100 µM"

[[record]]
compound = "COc1ccc(C(=O)COC(=O)[C@H](C[Se][Se]C[C@H](NC(=O)c2ccc(Br)cc2F)C(=O)OCC(=O)c2ccc(OC)cc2)NC(=O)c2ccc(Br)cc2F)cc1"
attribute_measured = "TGI"
observed_value = "0.61 µM"

[[record]]
compound = "C=C[C@@H]1C[C@]2(C(=O)OC)Cc3nc4ccccc4nc3CC(C(=O)OC)=C2O1"
attribute_measured = "TGI"
observed_value = "> 100 µM"

[[record]]
compound = "CN(C)S(=O)(=O)/N=C/c1cccc(/C=N/S(=O)(=O)N(C)C)c1"
attribute_measured = "TGI"
observed_value = "> 100 µM"


---

TGI values, listed per item
System: EKVX NSCLC
Test: NCI tumour cell line growth inhibition, 48 h
Attribute Measured: TGI (µM)

[[record]]
compound = "O=C(c1ccccc1)c1ccc(Oc2ccc([N+](=O)[O-])cc2[N+](=O)[O-])cc1"
relation = "="
observed_value = 38.4

[[record]]
compound = "OCC(O)C(O)C(O)c1nn(-c2ccc(Cl)cc2)c2nc3cc(Cl)c(Cl)cc3nc12 (stereo unspecified)"
relation = "="
observed_value = 67.9

[[record]]
compound = "COCCCNC(=O)C1=C(C)NC(C)=C(C(=O)NCCCOC)C1"
relation = "="
observed_value = 40.5

[[record]]
compound = "COC1CCN(C(=O)c2cc(Cc3n[nH]c(=O)c4ccccc34)ccc2F)CC1"
relation = ">"
observed_value = 100

[[record]]
compound = "Cc1nnc2sc(NN)nn12"
relation = ">"
observed_value = 100

[[record]]
compound = "O=C(O)c1cc(/C=C/c2cc(O)ccc2O)ccc1O"
relation = ">"
observed_value = 10

[[record]]
compound = "CC1COc2c(N3CCN(C)CC3)c(F)cc3c(=O)c(C(=O)O)cn1c23 (stereo unspecified)"
relation = ">"
observed_value = 100

[[record]]
compound = "COc1ccc(/C(O)=C/c2nc3cccnc3nc2/C=C(\\O)c2ccc(OC)cc2)cc1"
relation = "="
observed_value = 82.1

[[record]]
compound = "C=CCSC1=N/C(=C\\c2cccs2)C(=O)N1CC=C"
relation = "="
observed_value = 71.4

[[record]]
compound = "O=CNc1ncn[nH]1"
relation = ">"
observed_value = 100

[[record]]
compound = "Cc1ncc2c(=O)c3c(oc2n1)c1ccccc1n3Cc1ccccc1"
relation = ">"
observed_value = 100

